pIC50: −log10 of the molar value. Structures can show the parent of a compound that is named as a salt.
Observed pIC50 values for PI3Kγ (p110γ) (Homo sapiens (Human)) are listed in what follows.

# count of solved cases: 5
Cc1cc(-c2cnc(N)cn2)cc2cn(C(C)C3CC3)nc12 (stereo not drawn) [Example 5, trifluoroacetate] ... 6.30 to 7.00
C[C@@H](C1CC1)N1Cc2cc(-c3cnc(N)c(-c4cnn(C)c4)n3)cc(S(C)(=O)=O)c2C1=O [Example 8, trifluoroacetate salt] ... ≥ 7.00
C[C@@H](C1CC1)N1Cc2cc(-c3cnc(N)c(-n4cncn4)n3)cc(S(C)(=O)=O)c2C1=O [Example 12, trifluoroacetate salt] ... ≥ 7.00
C[C@@H](C1CC1)N1Cc2cc(-c3cnc(N)c(-c4cn[nH]c4)n3)cc(S(C)(=O)=O)c2C1=O [Example 11, trifluoroacetate salt] ... ≥ 7.00
C[C@@H](C1CC1)N1Cc2cc(-c3cnc(N)c(C(=O)NC4CCOCC4)n3)cc(S(C)(=O)=O)c2C1=O [Example 3, trifluoroacetate salt] ... ≥ 7.00

Q. Please look at CC(C)NC(=O)c1nc(-c2ccc3c(c2)CN([C@@H](C)C2CC2)C3=O)cnc1N [Example 2, trifluoroacetate salt] and tell me its recorded pIC50 on PI3Kγ (p110γ) (Homo sapiens (Human)).
Sequence (P48736 whole entry): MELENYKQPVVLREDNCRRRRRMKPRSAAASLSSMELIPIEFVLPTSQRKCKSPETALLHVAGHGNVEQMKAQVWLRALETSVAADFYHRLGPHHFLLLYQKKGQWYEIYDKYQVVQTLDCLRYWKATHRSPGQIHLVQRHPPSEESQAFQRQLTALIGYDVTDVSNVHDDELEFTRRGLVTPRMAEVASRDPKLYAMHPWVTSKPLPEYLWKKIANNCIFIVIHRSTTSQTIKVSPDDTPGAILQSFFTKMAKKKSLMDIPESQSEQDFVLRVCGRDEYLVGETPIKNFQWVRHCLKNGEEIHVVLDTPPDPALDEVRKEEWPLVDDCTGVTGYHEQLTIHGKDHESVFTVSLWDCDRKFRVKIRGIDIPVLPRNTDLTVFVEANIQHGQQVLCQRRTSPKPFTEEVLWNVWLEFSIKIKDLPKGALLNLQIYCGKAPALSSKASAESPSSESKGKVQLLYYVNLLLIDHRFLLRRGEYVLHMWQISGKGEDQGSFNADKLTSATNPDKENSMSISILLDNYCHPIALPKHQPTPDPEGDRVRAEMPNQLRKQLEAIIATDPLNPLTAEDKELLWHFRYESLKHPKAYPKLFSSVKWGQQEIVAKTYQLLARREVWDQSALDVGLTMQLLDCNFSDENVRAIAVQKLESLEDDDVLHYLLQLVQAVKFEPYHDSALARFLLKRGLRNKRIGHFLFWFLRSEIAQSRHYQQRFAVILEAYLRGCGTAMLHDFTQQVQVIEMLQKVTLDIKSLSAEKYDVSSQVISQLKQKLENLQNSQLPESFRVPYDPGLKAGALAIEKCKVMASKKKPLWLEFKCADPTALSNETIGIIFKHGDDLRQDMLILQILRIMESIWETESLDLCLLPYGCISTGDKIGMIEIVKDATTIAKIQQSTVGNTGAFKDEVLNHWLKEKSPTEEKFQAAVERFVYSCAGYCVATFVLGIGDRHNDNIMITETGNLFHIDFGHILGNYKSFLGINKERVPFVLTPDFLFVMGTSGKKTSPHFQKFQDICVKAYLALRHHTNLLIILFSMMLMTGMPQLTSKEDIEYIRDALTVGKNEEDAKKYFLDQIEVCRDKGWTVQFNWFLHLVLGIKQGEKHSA
A. ≥ 7.00

* * *

molecular target: UniProtKB P48736; experiment: PI3K-γ Scintillation Proximity Assay; type: biochemical; conditions: 20 μM PIP2, 2 μM ATP, 13 nM PI3Kγ, 120 min, room temperature
Structures can show the parent of a compound that is named as a salt.
READOUT_TYPE: IC50

Cc1n[nH]cc1-c1nc(-c2cc3c(c(S(C)(=O)=O)c2)C(=O)N([C@@H](C)C2CC2)C3)cnc1N [Example 10, trifluoroacetate salt] ... ≤ 100 nM
Cc1ncc(-c2nc(-c3cc4c(c(S(C)(=O)=O)c3)C(=O)N([C@@H](C)C3CC3)C4)cnc2N)s1 [Example 9, trifluoroacetate salt] ... ≤ 100 nM

Shifting focus to the compound that follows.
Q. Give a short answer stating reported IC50 for C[C@@H](C1CC1)N1Cc2cc(-c3cnc(N)c(-c4ccnn4C)n3)cc(S(C)(=O)=O)c2C1=O [Example 7, trifluoroacetate salt] .
A. ≤ 100 nM

* * *

biological target: PI3Kδ (p110δ/p85α) (Homo sapiens (Human), UniProt O00329); experiment: PI3Kδ Scintillation Proximity Assay; details: 20 μM PIP2, 2 μM ATP, 3.4 nM PI3Kδ, 120 min, room temperature
Sequence (O00329 whole entry): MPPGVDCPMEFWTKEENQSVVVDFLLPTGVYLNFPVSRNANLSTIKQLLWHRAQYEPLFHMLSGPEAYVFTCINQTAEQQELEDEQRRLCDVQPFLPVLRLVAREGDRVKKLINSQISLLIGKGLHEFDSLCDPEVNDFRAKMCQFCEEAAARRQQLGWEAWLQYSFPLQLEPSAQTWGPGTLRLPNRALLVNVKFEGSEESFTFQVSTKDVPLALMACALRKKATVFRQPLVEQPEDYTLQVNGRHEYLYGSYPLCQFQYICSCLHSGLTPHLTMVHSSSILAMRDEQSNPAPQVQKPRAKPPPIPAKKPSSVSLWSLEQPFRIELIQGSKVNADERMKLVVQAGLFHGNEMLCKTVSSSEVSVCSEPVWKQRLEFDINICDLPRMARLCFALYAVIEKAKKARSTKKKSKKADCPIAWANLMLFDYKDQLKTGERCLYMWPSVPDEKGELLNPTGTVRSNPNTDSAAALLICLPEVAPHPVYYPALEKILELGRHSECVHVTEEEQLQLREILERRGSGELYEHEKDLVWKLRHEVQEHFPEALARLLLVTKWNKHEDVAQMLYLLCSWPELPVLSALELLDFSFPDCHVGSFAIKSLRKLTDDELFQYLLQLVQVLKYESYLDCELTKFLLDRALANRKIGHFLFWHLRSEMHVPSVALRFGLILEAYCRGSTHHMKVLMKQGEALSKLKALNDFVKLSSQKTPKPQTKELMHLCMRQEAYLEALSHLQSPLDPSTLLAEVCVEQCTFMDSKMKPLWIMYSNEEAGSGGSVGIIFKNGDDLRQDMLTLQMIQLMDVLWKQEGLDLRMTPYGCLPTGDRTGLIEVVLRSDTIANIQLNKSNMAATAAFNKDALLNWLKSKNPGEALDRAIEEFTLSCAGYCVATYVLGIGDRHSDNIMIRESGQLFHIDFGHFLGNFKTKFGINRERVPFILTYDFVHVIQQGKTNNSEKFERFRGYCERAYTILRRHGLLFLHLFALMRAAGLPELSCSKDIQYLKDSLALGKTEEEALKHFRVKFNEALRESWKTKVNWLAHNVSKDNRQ
Sequence (P27986 whole entry partner): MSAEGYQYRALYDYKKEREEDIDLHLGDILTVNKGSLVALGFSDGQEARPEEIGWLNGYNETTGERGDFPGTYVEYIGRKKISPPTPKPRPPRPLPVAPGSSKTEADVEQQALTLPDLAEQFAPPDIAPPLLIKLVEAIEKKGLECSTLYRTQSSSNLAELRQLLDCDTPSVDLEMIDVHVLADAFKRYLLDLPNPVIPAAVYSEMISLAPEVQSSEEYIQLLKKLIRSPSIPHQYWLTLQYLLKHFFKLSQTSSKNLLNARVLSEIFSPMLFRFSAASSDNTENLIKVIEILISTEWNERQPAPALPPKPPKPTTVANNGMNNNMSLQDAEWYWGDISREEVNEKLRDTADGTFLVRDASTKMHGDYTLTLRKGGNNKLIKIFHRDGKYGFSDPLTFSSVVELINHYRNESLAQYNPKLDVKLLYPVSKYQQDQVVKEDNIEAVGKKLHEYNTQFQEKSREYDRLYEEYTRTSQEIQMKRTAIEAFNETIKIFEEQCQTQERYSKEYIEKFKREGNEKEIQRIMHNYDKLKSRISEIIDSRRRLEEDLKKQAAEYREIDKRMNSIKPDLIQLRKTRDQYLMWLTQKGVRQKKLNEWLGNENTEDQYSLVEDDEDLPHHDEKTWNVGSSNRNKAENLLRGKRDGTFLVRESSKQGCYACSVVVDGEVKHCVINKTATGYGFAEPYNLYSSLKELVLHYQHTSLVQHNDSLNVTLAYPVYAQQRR
Counter-ions that a name gives are not always drawn.
Each entry below lists one item and its recorded IC50 value.

# count of solved cases: 3
C[C@@H](C1CC1)N1Cc2cc(-c3cnc(N)c(C(=O)NC4CCOCC4)n3)ccc2C1=O [Example 1, trifluoroacetate salt] ... 0.5 to 2 µM
C[C@@H](C1CC1)N1Cc2cc(-c3cnc(N)c(C4CN(C(=O)C5(C(F)(F)F)CC5)C4)n3)ccc2C1=O [Example 13, trifluoroacetate salt] ... ≥ 2 µM
CC(C)NC(=O)c1nc(-c2ccc3c(c2)CN([C@@H](C)C2CC2)C3=O)cnc1N [Example 2, trifluoroacetate salt] ... 0.5 to 2 µM

Q. Please look at C[C@@H](C1CC1)N1Cc2cc(-c3cnc(N)c(-c4cnn(C)c4)n3)cc(S(C)(=O)=O)c2C1=O [Example 8, trifluoroacetate salt] and tell me its recorded IC50 on PI3Kδ (p110δ/p85α) (Homo sapiens (Human), UniProt O00329).
A. 0.5 to 2 µM

Q. Please look at Cc1ncc(-c2nc(-c3cc4c(c(S(C)(=O)=O)c3)C(=O)N([C@@H](C)C3CC3)C4)cnc2N)s1 [Example 9, trifluoroacetate salt] and tell me its recorded IC50 on PI3Kδ (p110δ/p85α) (Homo sapiens (Human), UniProt O00329).
A. 0.1 to 0.5 µM

Q. Please look at C[C@@H](C1CC1)N1Cc2cc(-c3cnc(N)c(-c4cn[nH]c4)n3)cc(S(C)(=O)=O)c2C1=O [Example 11, trifluoroacetate salt] and tell me its recorded IC50 on PI3Kδ (p110δ/p85α) (Homo sapiens (Human), UniProt O00329).
A. 0.5 to 2 µM
